Target: Human immunodeficiency virus type 1 reverse transcriptase (Human immunodeficiency virus 1, UniProt Q72547, K103N)
Assay: Inhibition of HIV1 reverse transcriptase K103N mutant assessed as 32P-labeled GMP incorporation into nascent DNA strand
Form field: pIC50 (one value per entry).
Quick note: pIC50 values are minus log10 of concentrations in mol/L.

Illustrative cases are given below, each with its answer.
- compound: "CCc1c(C(=O)c2cc(C)cc(C)c2)n(CC2CC2)c(=O)[nH]c1=O"
  reported.result: 5.75
- compound: "CCc1c(Oc2cc(C)cc(C)c2)n(CC2CCCCC2)c(=O)[nH]c1=O"
  reported.result: 5.72
- compound: "CCc1c(C(=O)c2cc(C)cc(C)c2)n(Cc2ccccc2)c(=O)[nH]c1=O"
  reported.result: 5.64
- compound: "CCc1c(C(=O)c2cc(C)cc(C)c2)n(CC2=CCCC2)c(=O)[nH]c1=O"
  reported.result: 5.71
- compound: "CCc1c(Oc2cc(C)cc(C)c2)n(CCC2C=CCC2)c(=O)[nH]c1=O (stereo unspecified)"
  reported.result: 5.71

Challenge: Item Cc1cc(C)cc(Oc2c(C(C)C)c(=O)[nH]c(=O)n2CCC2CC=CC2)c1 has what recorded pIC50?
Response given: 5.64

Challenge: Item CCc1c(Oc2cc(C)cc(C)c2)n(Cc2ccccc2)c(=O)[nH]c1=O has what recorded pIC50?
Response given: 6.71

Challenge: Item Cc1cc(C)cc(C(=O)c2c(C(C)C)c(=O)[nH]c(=O)n2CC2CC2)c1 has what recorded pIC50?
Response given: 5.57

Challenge: Item Cc1cc(C)cc(Sc2c(C(C)C)c(=O)[nH]c(=O)n2Cc2ccccc2)c1 has what recorded pIC50?
Response given: 5.78

Challenge: Item Cc1cc(C)cc(Sc2c(C(C)C)c(=O)[nH]c(=O)n2CCC2CC=CC2)c1 has what recorded pIC50?
Response given: 3.83

Challenge: Item Cc1cc(C)cc(Oc2c(C(C)C)c(=O)[nH]c(=O)n2CC2CCCCC2)c1 has what recorded pIC50?
Response given: 4.93

Challenge: Item Cc1cc(C)cc(C(=O)c2c(C(C)C)c(=O)[nH]c(=O)n2Cc2ccccc2)c1 has what recorded pIC50?
Response given: 5.85

Challenge: Item CCc1c(Sc2cc(C)cc(C)c2)n(Cc2ccccc2)c(=O)[nH]c1=O has what recorded pIC50?
Response given: 5.39

Challenge: Item Cc1cc(C)cc(C(=O)c2c(C(C)C)c(=O)[nH]c(=O)n2CC2CCC2)c1 has what recorded pIC50?
Response given: 5.74

Challenge: Item CCc1c(Sc2cc(C)cc(C)c2)n(CC2CC2)c(=O)[nH]c1=O has what recorded pIC50?
Response given: 6.59

Challenge: Item CCc1c(Sc2cc(C)cc(C)c2)n(CCC2CCCC2)c(=O)[nH]c1=O has what recorded pIC50?
Response given: 4.43

Challenge: Item Cc1cc(C)cc(C(=O)c2c(C(C)C)c(=O)[nH]c(=O)n2CC2CC=CC2)c1 has what recorded pIC50?
Response given: 4.64

Challenge: Item Cc1cc(C)cc(C(=O)c2c(C(C)C)c(=O)[nH]c(=O)n2CCC2CC=CC2)c1 has what recorded pIC50?
Response given: 5.77
